test system: SEM cells; experiment: cell viability relative to DMSO control; higher = less cytotoxic; details: RPMI 5 mM glucose + 10% FBS; 48 h; 1.71 µM
Exercise: for every item that follows, state its recorded cell viability.
One number for each entry, in %.

Illustrative cases are given below, each with its answer.
INSERT INTO results (molecule, recorded_value) VALUES
  ('COc1ccccc1OCC(O)CN1CCN(CC(=O)Nc2c(C)cccc2C)CC1 (centres undefined)', 142),
  ('OC[C@H]1O[C@H](C[C@@H]1O)N2\C=C(\I)C(=O)NC2=O', 110),
  ('C=C1C(=O)O[C@@H]2[C@H]3O[C@]3(C)CC/C=C(\C)CC[C@@H]12', 19.9);

I would be grateful if you could share the reported cell viability for CN1CCN(CC1)C/2=N/C3=CC=CC=C3NC4=C2C=C(C)S4 . 94.5

Data provenance is the supplement of paper PMC11451515.
